# SUBJECT OF TEST: Synaptic vesicular amine transporter (Rattus norvegicus)
# Sequence (Q01827 whole entry): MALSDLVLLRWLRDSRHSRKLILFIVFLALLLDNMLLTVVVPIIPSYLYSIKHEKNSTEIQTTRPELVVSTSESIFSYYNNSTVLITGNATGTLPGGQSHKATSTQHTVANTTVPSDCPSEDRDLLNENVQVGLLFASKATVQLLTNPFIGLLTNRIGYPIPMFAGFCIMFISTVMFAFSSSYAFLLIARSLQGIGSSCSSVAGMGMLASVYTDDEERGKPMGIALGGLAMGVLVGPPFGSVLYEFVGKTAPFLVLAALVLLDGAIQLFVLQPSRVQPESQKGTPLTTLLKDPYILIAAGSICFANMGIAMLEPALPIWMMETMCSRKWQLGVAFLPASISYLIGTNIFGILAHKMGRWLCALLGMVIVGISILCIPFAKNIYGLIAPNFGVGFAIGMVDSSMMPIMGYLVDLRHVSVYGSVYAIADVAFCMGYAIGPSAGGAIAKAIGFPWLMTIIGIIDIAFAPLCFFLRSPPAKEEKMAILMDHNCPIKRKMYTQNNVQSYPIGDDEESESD
# METHOD: Inhibition of rat VMAT2 transfected in HEK cells using FFN206 as fluorescent substrate preincubated for 1 hr followed by substrate addition and measured after 30 mins by fluorescence plate reader assay
RECORDED METRIC: IC50 (nM)
Field: numeric (nM). Do not append units.

Query: GET /values?readout=IC50&item= CC[C@H]1C[C@@H]2C[C@H]3c4[nH]c5ccccc5c4CCN(C2)[C@@H]13
Result: 3000

Query: Field entry: CC[C@H]1C[C@@H]2C[C@H]3c4c(c5ccccc5n4C)CCN(C2)[C@@H]13
Result: 1500

Query: Field entry: CC[C@H]1C[C@@H]2C[C@H]3c4[nH]c5ccc(OC)cc5c4CCN(C2)[C@@H]13
Result: 4000

Query: Field entry: CC[C@H]1C[C@@H]2C[C@H]3c4[nH]c5ccc(C#N)cc5c4CCN(C2)[C@@H]13
Result: 3300

Query: Field entry: CCOc1ccc2[nH]c3c(c2c1)CCN1C[C@@H]2C[C@H](CC)[C@H]1[C@H]3C2
Result: 80

Query: Field entry: CC[C@H]1C[C@@H]2C[C@H]3c4c(c5cc(O)ccc5n4CC)CCN(C2)[C@@H]13
Result: 70

Query: Field entry: CC[C@H]1C[C@@H]2C[C@H]3c4c(c5cc(C#N)ccc5n4C)CCN(C2)[C@@H]13
Result: 440

Query: Field entry: CC[C@H]1C[C@@H]2C[C@H]3c4c(c5cc(O)ccc5n4C)CCN(C2)[C@@H]13
Result: 170
